tested on: CCRF-CEM leukemia; assay: NCI tumour cell line growth inhibition, 48 h
# TGI listing for each entry below

[
  {
    "compound": "Cc1ccc2nc(-c3ccc(-n4c(C)nc(=O)c(-c5ccc(F)cc5)c4C)cc3)sc2c1",
    "readout.value": "32.7 µM"
  },
  {
    "compound": "Fc1ccc(OCc2nc3cc(C(F)(F)F)ccc3nc2-c2ccccc2)cc1",
    "readout.value": "> 93.1 µM"
  },
  {
    "compound": "Cc1nc2ccccc2c(=O)n1NC(=O)c1ccc([N+](=O)[O-])cc1",
    "readout.value": "> 100 µM"
  }
]

Input: Answer with the recorded TGI of `NC(=S)Nc1cc(Cl)ccc1Cl` only.
Output: > 100 µM

Input: Answer with the recorded TGI of `O=C1c2ccccc2-c2c1c(-c1ccc([N+](=O)[O-])cc1)nc1ccc3ccccc3c21` only.
Output: > 100 µM

Input: Answer with the recorded TGI of CN(C)c1ncnc2c1nnn2C1OC(CO)C(O)C1O (stereo not given) only.
Output: > 100 µM

Input: Answer with the recorded TGI of `CCOC(=O)N(c1ccccc1)c1cc(=O)n2ccccc2n1` only.
Output: > 100 µM

Input: Answer with the recorded TGI of CC1(C)CCc2cc3c(cc2O1)OCC1c2cc4c(cc2OC31)OCO4 (stereo not given) only.
Output: > 100 µM

Input: Answer with the recorded TGI of `COc1ccc2nc3cc(Cl)ccc3c(N3CCN(c4ccnc(N5CCOCC5)n4)CC3)c2c1` only.
Output: > 100 µM

Input: Answer with the recorded TGI of c1cc(-c2ccc(-c3ccc(C4=NC5CCCCC5N4)cc3)o2)ccc1C1=NC2CCCCC2N1 (stereo not given) only.
Output: > 100 µM
